target: CDK1/Cyclin B1 (Homo sapiens, UniProt P06493); assay: CDK1/Cyclin B1 Biochemical Assay (TR-FRET), 1 mM ATP; details: 0.15 μM Rb (Ser780)-biotin substrate, pH7.0, 60 min preincubation, 90 min reaction, room temperature
Sequence (P06493 whole entry): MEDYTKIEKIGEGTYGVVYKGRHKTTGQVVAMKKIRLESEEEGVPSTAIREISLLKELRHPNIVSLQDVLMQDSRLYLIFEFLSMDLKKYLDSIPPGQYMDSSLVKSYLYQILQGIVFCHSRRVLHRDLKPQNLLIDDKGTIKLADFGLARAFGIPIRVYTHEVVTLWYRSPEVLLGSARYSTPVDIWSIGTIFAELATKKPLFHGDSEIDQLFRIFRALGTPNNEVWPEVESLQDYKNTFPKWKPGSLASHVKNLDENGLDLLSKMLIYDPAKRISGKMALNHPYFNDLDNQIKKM
Sequence (P14635 whole entry partner): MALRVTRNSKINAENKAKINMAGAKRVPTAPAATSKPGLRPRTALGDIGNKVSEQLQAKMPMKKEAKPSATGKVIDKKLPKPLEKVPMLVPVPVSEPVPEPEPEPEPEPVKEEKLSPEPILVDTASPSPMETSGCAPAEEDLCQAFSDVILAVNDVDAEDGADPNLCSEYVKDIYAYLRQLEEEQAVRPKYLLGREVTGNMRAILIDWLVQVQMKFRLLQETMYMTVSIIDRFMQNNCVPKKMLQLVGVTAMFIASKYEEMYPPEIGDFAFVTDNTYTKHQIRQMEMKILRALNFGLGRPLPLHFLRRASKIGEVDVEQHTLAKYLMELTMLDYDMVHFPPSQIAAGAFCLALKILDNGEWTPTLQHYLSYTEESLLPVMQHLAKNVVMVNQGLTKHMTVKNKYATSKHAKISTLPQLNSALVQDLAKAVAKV
pIC50: −log10 of the molar value.
recorded-endpoint: pIC50

Here's what some known entries look like.
> print(dat)
                                   compound  number
1  CN1c2ccc(Nc3cc([C@@H]4CC[C@H](OC(=O)NCC5(O)CC5)C4)[nH]n3)cc2CS1(=O)=O (relative stereo)    5.31
2  CC1(C)CCN1C(=O)O[C@H]1CC[C@@H](c2cc(Nc3cc4c(cc3F)S(=O)(=O)NC4)n[nH]2)C1 (relative stereo)    5.92
3  CC1(C)CCCN1C(=O)O[C@H]1CC[C@@H](c2cc(Nc3cc4c(cc3F)S(=O)(=O)NC4)n[nH]2)C1 (relative stereo)    5.89

I. CC(C)(CO)NC(=O)O[C@H]1CC[C@@H](c2cc(Nc3ccc4c(c3F)CN(C3CC3)S4(=O)=O)n[nH]2)C1 (single isomer, unassigned) [Example 359a]
II. CC1(NC(=O)O[C@H]2CC[C@@H](c3cc(Nc4cc5c(cc4F)S(=O)(=O)NC5)n[nH]3)C2)CCCC1 (relative stereo)
Q: I or II : whose pIC50 is greater? Reply with the label of the item you choose.
Ans: II
(II: 5.85, I: 5.10)

---

target: CDK1/Cyclin B1 (Homo sapiens); experiment: CDK1/Cyclin B1 Biochemical Assay (TR-FRET), 0.015 mM ATP; conditions: 0.15 μM Rb (Ser780)-biotin substrate, pH7.0, 60 min preincubation, 120 min reaction, room temperature
recorded-endpoint: IC50 (nM)

molecule	system	IC50 (nM)
[2H]C([2H])([2H])N1c2c(F)cc(Nc3cc([C@@H]4CC[C@H](OC(=O)NC(C)C)C4)[nH]n3)cc2CS1(=O)=O (single isomer, unassigned) [Example 289b]	CDK1/Cyclin B1 (Homo sapiens)	116
CC(C)NC(=O)O[C@H]1CC[C@@H](c2cc(Nc3ccc4c(c3)CS(=O)(=O)N4CC3COC3)n[nH]2)C1 (relative stereo)	CDK1/Cyclin B1 (Homo sapiens)	40
CC[C@H](C)NC(=O)O[C@H]1CC[C@@H](c2cc(Nc3ccc4c(c3F)CS(=O)(=O)N4CC(F)(F)F)n[nH]2)C1 (single isomer, unassigned) [Example 265b]	CDK1/Cyclin B1 (Homo sapiens)	26
CC[C@H](C)NC(=O)O[C@H]1CC[C@@H](c2cc(Nc3ccc4c(c3F)C(C)NS4(=O)=O)n[nH]2)C1 (single isomer, unassigned) [Example 54d]	CDK1/Cyclin B1 (Homo sapiens)	428
CC(C)NC(=O)O[C@H]1CC[C@@H](c2cc(Nc3ccc4c(c3F)CN(CC3CN(S(C)(=O)=O)C3)S4(=O)=O)n[nH]2)C1 (relative stereo)	CDK1/Cyclin B1 (Homo sapiens)	290
CC1(NC(=O)O[C@H]2CC[C@@H](c3cc(Nc4ccc5c(c4F)CS(=O)(=O)N5CC(F)(F)F)n[nH]3)C2)CC1 (single isomer, unassigned) [Example 264b]	CDK1/Cyclin B1 (Homo sapiens)	22

A. CCCNC(=O)O[C@H]1CC[C@@H](c2cc(Nc3ccc4c(c3F)CS(=O)(=O)N4CCO)n[nH]2)C1 (single isomer, unassigned) [Example 272a]
B. CN1c2ccc(Nc3cc([C@@H]4CC[C@H](OC(=O)NC5(CO)CC5)C4)[nH]n3)cc2CS1(=O)=O (relative stereo)
C. CC(C)NC(=O)O[C@H]1CC[C@@H](c2cc(Nc3cc4c(cc3F)N(C3CC3)S(=O)(=O)C4)n[nH]2)C1 (relative stereo)
D. Cc1c(Nc2cc([C@@H]3CC[C@H](OC(=O)NC(C)C)C3)[nH]n2)ccc2c1CN(C)S2(=O)=O (relative stereo)
Q: Thanks in advance: please rank these 4 entries by IC50, highest to lowest. Write out the labels following the order that was asked for.
Ans: C, D, A, B
